Cited source for all entries: patent US20020103111A1

Recorded % Adhesion Inhibition by entry
target: human α4β7 integrin (human), P13612; assay: inhibition of HUT 78 cell adhesion to murine MAdCAM-1/mCk at 500 µM
Ends that are not written are not given here.
The figure you give is taken to be in %; do not add the unit.

Prompt line: Any idea what its % Adhesion Inhibition is? The binder is Ac-LDSSL (not fully specified (C-terminus); printed as Ac-Leu-Asp-Ser-Ser-Leu) [Ac-Leu-Asp-Ser-Ser-Leu]
Response line: 38

Prompt line: Also, Ac-GLDTSL (not fully specified (C-terminus); printed as Ac-Gly-Leu-Asp-Thr-Ser-Leu) [Ac-Gly-Leu-Asp-Thr-Ser-Leu] please.
Response line: 58

Prompt line: Also, Ac-LDASL (not fully specified (C-terminus); printed as Ac-Leu-Asp-Ala-Ser-Leu) [Ac-Leu-Asp-Ala-Ser-Leu] please.
Response line: 47

Prompt line: Also, Ac-LDTTL (not fully specified (C-terminus); printed as Ac-Leu-Asp-Thr-Thr-Leu) [Ac-Leu-Asp-Thr-Thr-Leu] please.
Response line: 98

Shift focus to the following entry.
Prompt line: Any idea what its % Adhesion Inhibition is? The binder is Ac-LFTSL (not fully specified (C-terminus); printed as Ac-Leu-Phe-Thr-Ser-Leu) [Ac-Leu-Phe-Thr-Ser-Leu]
Response line: 29
